Biological target: Solute carrier family 2, facilitated glucose transporter member 1 (Homo sapiens)
Test: ST_JUDE_LEISH: Cytotoxicity at 2uM final concentration against transgenic Leishmania Mexicana promastigotes LmGLUT1 that are glucose transport deficient and complemented with the human glucose transporter GLUT1. Activity is measured by DNA content using SYBR green in vitro
Format: functional
Measured property: inhibition (%)
Report as a plain number; the unit % is understood.

Solved entries:
Molecule: Cc1cc(N[C@@H](CC(C)C)C(=O)NCc2cccc(F)c2)nc(NCCc2ccccc2)n1
Numeric value: 3.97
//
Molecule: Cc1noc(C)c1C(=O)N1CCCC(c2[nH]c3c(C)cccc3c2-c2ccncc2)C1 (centres undefined)
Numeric value: 2.42
//
Molecule: CC(O)C1CCCCN1C(=O)c1cccc(-c2cccc(-c3nc4ccccc4[nH]3)c2)c1 (centres undefined)
Numeric value: 0.78

Problem: What is its inhibition for Solute carrier family 2, facilitated glucose transporter member 1 (Homo sapiens)? Entry: COc1ccc(-c2cccc(NC(=O)c3cccc(Cl)c3)c2)cc1CN1CCCC1
Result: 7.71

Problem: What is its inhibition for Solute carrier family 2, facilitated glucose transporter member 1 (Homo sapiens)? Entry: Cc1cc(C(=O)Nc2nc(-c3ccccn3)nc3ccsc23)no1
Result: 75.8

Problem: What is its inhibition for Solute carrier family 2, facilitated glucose transporter member 1 (Homo sapiens)? Entry: Cc1cccc2nc(-c3ccc(-c4cccc(NC(=O)c5cncn5C)c4)cc3)[nH]c12
Result: 5.73

Problem: What is its inhibition for Solute carrier family 2, facilitated glucose transporter member 1 (Homo sapiens)? Entry: O=c1[nH]nc(-c2ccc(N3CCCC3)c([N+](=O)[O-])c2)c2ccccc12
Result: 2.71

Problem: What is its inhibition for Solute carrier family 2, facilitated glucose transporter member 1 (Homo sapiens)? Entry: Cc1cnc(NCC2CCCCC2)nc1N[C@@H](CC(C)C)C(=O)Nc1ccccc1
Result: 2.17

* * *

Biological target: Hexose transporter 1 (Plasmodium falciparum) (UniProt O97467)
Assay: ST_JUDE_LEISH: Cytotoxicity at 2uM final concentration against transgenic Leishmania Mexicana promastigotes LmPfHT that are glucose transport deficient and complemented with the Plasmodium falciparum hexose transporter. Activity is measured by DNA content using SYBR green in vitro
Format: functional
Below, each entry is listed with its recorded inhibition.
Report as a plain number; the unit % is understood.

Problem: Quick check: inhibition of Cc1ccc(Nc2nc(C)cc(Nc3cccc(C#N)c3)n2)cc1 ?
Result: 65.8

Problem: Quick check: inhibition of N#Cc1cc([N+](=O)[O-])ccc1-n1nc(-c2cccc(Cl)c2)n(CC2CCCO2)c1=S (centres undefined) ?
Result: 1.3

Problem: Quick check: inhibition of O=C(Cn1c(CCc2cccc(F)c2F)nc(=O)c2cccnc21)N(Cc1ccc(-c2ccc(C(F)(F)F)cc2)cc1)C1CCN(C2CCOCC2)CC1 ?
Result: 1.35

* * *

Biological target: Glucose transporter (Leishmania mexicana) (UniProt O61059)
Test: ST_JUDE_LEISH: Cytotoxicity at 2uM final concentration against transgenic Leishmania Mexicana promastigotes LmGT2 that are glucose transport deficient and complemented with the L. Mexicana glucose transporter 2. Activity is measured by DNA content using SYBR green in vitro
Type: functional
Measured property: inhibition (%)
Report as a plain number; the unit % is understood.

Solved entries:
Compound: COCCCNC(=O)[C@H]1CNCCN1C(=O)c1ccccc1
Numeric value: 3.67

Compound: Cc1cccc2nc(-c3cccc(-c4cccc(NC(=O)c5cncn5C)c4)c3)[nH]c12
Numeric value: 4.6

Compound: N#Cc1ccc(NC(=O)c2ccc(C(=O)NCCCCN3CCC(c4ccc5c(c4OCCOC4CCCCO4)CCCC5)CC3)cc2)cc1 (stereo not given)
Numeric value: 0.27

Compound: Cc1cc(Nc2cccc(C#N)c2)nc(Nc2ccccc2C)n1
Numeric value: 52.3

Compound: Cc1cccc2nc(-c3ccc(-c4cccc(NC(=O)CCc5c[nH]cn5)c4)s3)[nH]c12
Numeric value: 1.67

Problem: Quick check: inhibition of CC(Oc1c(C2CCN(CCCCNC(=O)c3ccc(-c4ccc(Cl)cc4)cc3)CC2)ccc2c1CCCC2)C(N)=O (stereo not given) ?
Result: -0.27

Problem: Quick check: inhibition of O=c1cc(NCCCNCc2ccc(Cl)c(Cl)c2)[nH]c2cc(Cl)ccc12 ?
Result: 2.73

Problem: Quick check: inhibition of Clc1ccc(-c2cnc3ccc(NCc4ccncc4)nn23)cc1 ?
Result: -0.5

Problem: Quick check: inhibition of CC(O)C1CCCCN1C(=O)c1cccc(-c2cccc(-c3nc4cc(C(F)(F)F)ccc4[nH]3)c2)c1 (stereo not given) ?
Result: -0.12

Problem: Quick check: inhibition of CC(C)(CNC(=O)C1CCN(CCOCc2ccccc2)CC1)c1nc(-c2ccc(Cl)c(O)c2)c(-c2ccncc2)[nH]1 ?
Result: 2.74

Problem: Quick check: inhibition of CCc1c(C)nc(-n2nc(C)cc2NC(=O)CCc2ccccc2)[nH]c1=O ?
Result: 2.86

Problem: Quick check: inhibition of CN1CCN(c2nc(NCCNc3ccc([N+](=O)[O-])cc3)c3ccccc3n2)CC1 ?
Result: 0.54

Problem: Quick check: inhibition of O=C(Cc1c[nH]cn1)Nc1cccc(-c2ccc(-c3nc4cc(C(F)(F)F)ccc4[nH]3)s2)c1 ?
Result: -0.81

Problem: Quick check: inhibition of CCO[C@H]1CN[C@H](C#Cc2cc3c(Nc4ccc(OCc5cccc(F)c5)c(Cl)c4)ncnc3s2)C1 ?
Result: 3.03

Origin of measurements: ChEMBL document CHEMBL3433997
